Assay: viability loss of HPDE-C7K cells – cell-based, fluorescence, HTS, primary screen (AID 431);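 further: 0% = DMSO solvent wells and 100% = doxorubicin-treated wells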
Settings: HPDE-C7K KRASV12 cells, Alamar Blue viability, 48 h; at 10 µM; hits give high values
Among all 63,000 compounds or so, about 1,100 (1.7%) were called active. The list comes from a sample in which actives are over-represented; it also holds close analogues and randomly drawn compounds. Potency and affinity values are given separately.

{"columns": ["compound", "cytotoxicity [%]"],
 "data": [
  ["CCCCN(CC)S(=O)(=O)c1ccc(C(=O)Nc2nnc(-c3ccccc3Cl)o2)cc1", 58.3],
  ["COC(=O)c1ccc(C(=O)OC)c(NS(C)(=O)=O)c1", -2.8],
  ["O=C(Nc1nnc(-c2cccs2)o1)c1cccc(C(F)(F)F)c1", 77.3],
  ["COc1ccc(-c2nsc3c(N4CCN(S(=O)(=O)c5ccccc5)CC4)ncnc23)cc1", 56.4],
  ["CCC(C)(C)n1nnnc1C(c1cc2ccc(OC)cc2[nH]c1=O)N1CCc2ccccc2C1 (stereo not given)", 35],
  ["Cc1cc(C)c(C)c(S(=O)(=O)NCc2cccnc2)c1C", -6.4],
  ["CCC(=O)N1c2ccccc2NC2=C(C(=O)CC(c3ccco3)C2)C1c1ccco1 (stereo not given)", 7.6],
  ["CCc1cc(C(=O)Cc2nc3ccccc3[nH]2)c(O)cc1O", 20],
  ["CN=C(Nc1cc(C)nn1CCC#N)c1ccccc1F", 4.4],
  ["COc1ccc(-c2nc(SCC(=O)NCc3ccco3)c(-c3ccccc3)[nH]2)cc1OC", -6.7],
  ["O=C(OCN1C(=O)c2ccccc2C1=O)c1ccccc1", 2.9],
  ["OC(COc1ccc(Cl)cc1)CN1C2=NCCCN2c2ccccc21 (stereo not given)", 6.4],
  ["Cc1ccc(Cl)cc1N1CCN(C(=O)c2cn(C)c(=O)c3c2c2ccccc2n3C)CC1", 110],
  ["Cc1cc(NCCN2CCOCC2)n2ncc(-c3ccc(Cl)cc3)c2n1", 17],
  ["Nc1nncn1C(=O)CCc1ccccc1", 4],
  ["CCc1cc(C(=O)COc2ccccc2F)c(O)cc1O", -13.8],
  ["CCc1cc(C(=O)Cc2cnn(-c3ccccc3)c2)c(O)cc1O", 6.7],
  ["CCOC(=O)N1CCC(NC(=O)Cn2c3c(c(-c4ccccc4Cl)cc2=O)CCC3)CC1", 4.9],
  ["Cc1nn(-c2ccccc2)c(OC(=O)c2cccs2)c1S(=O)(=O)c1ccccc1", 1.2],
  ["Cc1ccc(C(C)C)cc1S(=O)(=O)NCc1cccnc1", 0.8],
  ["COc1ccc(C2C3=C(CC(c4ccco4)CC3=O)Nc3ccccc3N2C(C)=O)cc1 (stereo not given)", -5.9],
  ["Cc1ccc(CNC(=O)CCS(=O)(=O)c2ccc(Br)s2)o1", -4.2],
  ["O=C(Oc1ccc2c(c1)OCO2)c1cc2c(s1)CCC2", 66.1],
  ["Cc1cc2c(cc(C(=O)OCC(=O)NCc3cccs3)n2C(C)C)o1", 59.5],
  ["Cc1ccc(S(=O)(=O)c2c(C)nn(C(C)(C)C)c2OC(=O)c2ccco2)cc1", 5.7],
  ["Cc1cc(NCCOCCO)n2ncc(-c3ccc(Cl)cc3)c2n1", 75.4],
  ["Cc1nn(C(C)(C)C)c(OC(=O)c2cccs2)c1S(=O)(=O)c1ccccc1", 64],
  ["Cc1ccc(CNc2nc3c([nH]2)c(=O)n(C)c(=O)n3C)cc1", -19.3],
  ["COc1ccc(-c2nsc3c(N4CCCC4)ncnc23)cc1", 11.5],
  ["CCN(Cc1ccccc1)S(=O)(=O)c1ccc(C(=O)Nc2nnc(C3CC3)o2)cc1", 6.4],
  ["CC1CCCCN1CC(=O)Nc1sc2c(c1C#N)CCC2 (stereo not given)", -11.1],
  ["Cc1c(C(C)O)nnn1-c1nonc1N (stereo not given)", 7.8],
  ["O=C(Nc1nnc(-c2cccs2)o1)c1cccc(Oc2ccccc2)c1", 35.3],
  ["O=C(Oc1ccc2c(c1)OCO2)c1ccncc1", 12.7],
  ["COc1ccc(-n2ccnc2SCC(=O)NCc2ccc3c(c2)OCO3)cc1", 3.4],
  ["O=C1CC(c2ccco2)CC2=C1C1c3ccccc3C(=O)N1c1ccccc1N2 (stereo not given)", 51.6],
  ["CCOC(=O)N1CCN(C(=O)c2cn(C)c(=O)c3c2c2ccccc2n3C)CC1", 4.1],
  ["COc1ccc(N2CCN(C(=O)c3cn(C)c(=O)c4c3c3ccccc3n4C)CC2)cc1", 10.6],
  ["CCOc1ccc(C(=O)COC(=O)CC)cc1", -1.3],
  ["CC(C)c1ccc(OC(=O)NCCO)cc1", -6.6],
  ["CCCc1cc(C(=O)Cc2ccc(C(=O)OCC)o2)c(O)cc1O", 24.5],
  ["Cc1cc(C2=CC(C)(c3cc(C)oc3C)Nc3nc(C(F)(F)F)nn32)c(C)o1 (stereo not given)", 56.2],
  ["COC(=O)CCC(=O)Oc1ccc(OC(=O)CCC(=O)OC)cc1", 18.3],
  ["Nc1nc2nonc2nc1N1CCCCC1", -2.7],
  ["Cc1ccc(S(=O)(=O)c2c(C)nn(C(C)(C)C)c2OC(=O)c2cccs2)cc1", 5]
]}

The reported numbers originate from PubChem BioAssay AID431.
